- test method notes: Biodistribution of 99mTc(N)(X)(DTC)+ heterocomplexes in rats
- Assay type: in vivo, male Spraque-Dawley rats (SD rats)
endpoint name: Heart % dose/g (% dose/g)

>>> print(df.to_string())
                                   molecule  readout_units  numeric_readout
0  CCCN1CC[P+](c2ccccc2)(c2ccccc2)[99Tc-2]2(#[N])([NH]N(C)C(SC)=[S+]2)[P+](c2ccccc2)(c2ccccc2)CC1 [^99mTc(N)(PNP1)(DTC)^+]       % dose/g            1.236

A = CSC1=[S+][99Tc-2]2(#[N])([NH]N1C)[P+](c1ccccc1)(c1ccccc1)CCOCC[P+]2(c1ccccc1)c1ccccc1 [^99mTc(N)(POP)(DTC)^+]
B = COCCN1CC[P+](c2ccccc2)(c2ccccc2)[99Tc-2]2(#[N])([NH]N(C)C(SC)=[S+]2)[P+](c2ccccc2)(c2ccccc2)CC1 [^99mTc(N)(PNP2)(DTC)^+]
C = COCCC[P]1(CCCOC)CCN(CCOC)CC[P](CCCOC)(CCCOC)[99Tc+]12(#[N])[NH]N(C)C(SC)=[S]2 [^99mTc(N)(PNP3)(DTC)^+]
Rank the items in ascending order with respect to Heart % dose/g. Your task in answering is to list the labels in the requested order.
A, B, C

====

- test method notes: Biodistribution of 99mTc(N)(X)(DTC)+ heterocomplexes in rats
- Format: in vivo, male Spraque-Dawley rats (SD rats)
- protocol conditions: 2 hr after injection
endpoint name: Stomach % dose/g (% dose/g)

A = CSC1=[S+][99Tc-2]2(#[N])([NH]N1C)[P+](c1ccccc1)(c1ccccc1)CCOCC[P+]2(c1ccccc1)c1ccccc1 [^99mTc(N)(POP)(DTC)^+]
B = CCCN1CC[P+](c2ccccc2)(c2ccccc2)[99Tc-2]2(#[N])([NH]N(C)C(SC)=[S+]2)[P+](c2ccccc2)(c2ccccc2)CC1 [^99mTc(N)(PNP1)(DTC)^+]
Please compare: A and B . Report which one has the smaller Stomach % dose/g value. Lab note: record the label of whichever item you select.
B
(B: 0.776 % dose/g, A: 1.857 % dose/g)

====

- test method notes: Biodistribution of 99mTc(N)(X)(DTC)+ heterocomplexes in rats
- Format: in vivo, male Spraque-Dawley rats (SD rats)
- protocol conditions: 2 min after injection
endpoint name: Stomach % dose/g (% dose/g)

>>> print(df.to_string())
                                   molecule     endpoint_name  readout_units  numeric_readout
0  COCCN1CC[P+](c2ccccc2)(c2ccccc2)[99Tc-2]2(#[N])([NH]N(C)C(SC)=[S+]2)[P+](c2ccccc2)(c2ccccc2)CC1 [^99mTc(N)(PNP2)(DTC)^+]  Stomach % dose/g       % dose/g           0.0603
1  CSC1=[S+][99Tc-2]2(#[N])([NH]N1C)[P+](c1ccccc1)(c1ccccc1)CCOCC[P+]2(c1ccccc1)c1ccccc1 [^99mTc(N)(POP)(DTC)^+]  Stomach % dose/g       % dose/g            0.493

P = CCCN1CC[P+](c2ccccc2)(c2ccccc2)[99Tc-2]2(#[N])([NH]N(C)C(SC)=[S+]2)[P+](c2ccccc2)(c2ccccc2)CC1 [^99mTc(N)(PNP1)(DTC)^+]
Q = COCCC[P]1(CCCOC)CCN(CCOC)CC[P](CCCOC)(CCCOC)[99Tc+]12(#[N])[NH]N(C)C(SC)=[S]2 [^99mTc(N)(PNP3)(DTC)^+]
Hi team, can someone confirm which has the larger Stomach % dose/g: P or Q ? Thanks. Lab note: record the label of whichever item you select.
Q
(Q: 0.740 % dose/g, P: 0.379 % dose/g)

The reported measurements were obtained from patent US20020048549A1.
